Item-by-item account of MIC
# Tested on: Candida tropicalis
# test.summary: Antifungal activity against Candida tropicalis ATCC 13803 after 24 hrs by two fold serial dilution method
# Type: functional
# experimental.setup: ATCC 13803, 24 h

compound.structure	tgt	MIC
CCC(C)(C)Oc1c(OC)ccc2c(Cc3ccc(C(C)C)cc3)c3[n+](cc12)CCc1cc2c(cc1-3)OCO2.[Cl-]	Candida tropicalis	1 µg/mL
COc1ccc2c(Cc3ccc(C(C)C)cc3)c3[n+](cc2c1OCc1ccc(C(F)(F)F)cc1)CCc1cc2c(cc1-3)OCO2.[Cl-]	Candida tropicalis	2 µg/mL
COc1ccc2c(Cc3ccc(C(C)C)cc3)c3n(cc-2c1=O)CCc1cc2c(cc1-3)OCO2	Candida tropicalis	16 µg/mL
C[C@@H]1[C@H](O)[C@@H](C)/C=C/C=C/C=C/C=C/C=C/C=C/C=C/[C@H](O[C@@H]2O[C@H](C)[C@@H](O)[C@H](N)[C@@H]2O)C[C@@H]2O[C@](O)(C[C@@H](O)C[C@@H](O)[C@H](O)CC[C@@H](O)C[C@@H](O)CC(=O)O[C@H]1C)C[C@H](O)[C@H]2C(=O)O	Candida tropicalis	0.5 µg/mL
COc1ccc2c(Cc3ccc(C(C)C)cc3)c3[n+](cc2c1OCc1ccc(OC(F)(F)F)cc1)CCc1cc2c(cc1-3)OCO2.[Cl-]	Candida tropicalis	2 µg/mL
COc1ccc2c(Cc3ccc(C(C)C)cc3)c3[n+](cc2c1OCCCO)CCc1cc2c(cc1-3)OCO2.[Cl-]	Candida tropicalis	1 µg/mL
CCCOc1c(OC)ccc2c(Cc3ccc(C(C)C)cc3)c3[n+](cc12)CCc1cc2c(cc1-3)OCO2.[Cl-]	Candida tropicalis	0.5 µg/mL
COc1ccc2c(Cc3ccc(C(C)C)cc3)c3[n+](cc2c1OCc1ccccc1)CCc1cc2c(cc1-3)OCO2.[Cl-]	Candida tropicalis	4 µg/mL
COc1ccc2c(Cc3ccc(C(C)C)cc3)c3[n+](cc2c1OCc1ccc(C(C)C)cc1)CCc1cc2c(cc1-3)OCO2.[Cl-]	Candida tropicalis	1 µg/mL
COc1ccc2c(Cc3ccc(C(C)C)cc3)c3[n+](cc2c1OC)CCc1cc2c(cc1-3)OCO2	Candida tropicalis	1 µg/mL
COc1ccc2c(Cc3ccc(C(C)C)cc3)c3[n+](cc2c1OCc1ccc(C(C)(C)C)cc1)CCc1cc2c(cc1-3)OCO2.[Cl-]	Candida tropicalis	1 µg/mL
COc1ccc2c(Cc3ccc(C(C)C)cc3)c3[n+](cc2c1OCc1cc(F)c(F)c(F)c1)CCc1cc2c(cc1-3)OCO2.[Cl-]	Candida tropicalis	4 µg/mL
COc1ccc2c(Cc3ccc(C(C)C)cc3)c3[n+](cc2c1OC(C)=O)CCc1cc2c(cc1-3)OCO2.[Cl-]	Candida tropicalis	16 µg/mL
COc1ccc2c(Cc3ccc(C(C)C)cc3)c3[n+](cc2c1OC(C)(C)C)CCc1cc2c(cc1-3)OCO2.[Cl-]	Candida tropicalis	1 µg/mL

This collection of values is drawn from ChEMBL document CHEMBL1268965.
